FYI, the data here is from ChEMBL document CHEMBL3039007.

Item-by-item account of residual activity
# Target of assay: Solute carrier organic anion transporter family member 1B3 (Homo sapiens)
# Sequence (Q9NPD5 whole entry): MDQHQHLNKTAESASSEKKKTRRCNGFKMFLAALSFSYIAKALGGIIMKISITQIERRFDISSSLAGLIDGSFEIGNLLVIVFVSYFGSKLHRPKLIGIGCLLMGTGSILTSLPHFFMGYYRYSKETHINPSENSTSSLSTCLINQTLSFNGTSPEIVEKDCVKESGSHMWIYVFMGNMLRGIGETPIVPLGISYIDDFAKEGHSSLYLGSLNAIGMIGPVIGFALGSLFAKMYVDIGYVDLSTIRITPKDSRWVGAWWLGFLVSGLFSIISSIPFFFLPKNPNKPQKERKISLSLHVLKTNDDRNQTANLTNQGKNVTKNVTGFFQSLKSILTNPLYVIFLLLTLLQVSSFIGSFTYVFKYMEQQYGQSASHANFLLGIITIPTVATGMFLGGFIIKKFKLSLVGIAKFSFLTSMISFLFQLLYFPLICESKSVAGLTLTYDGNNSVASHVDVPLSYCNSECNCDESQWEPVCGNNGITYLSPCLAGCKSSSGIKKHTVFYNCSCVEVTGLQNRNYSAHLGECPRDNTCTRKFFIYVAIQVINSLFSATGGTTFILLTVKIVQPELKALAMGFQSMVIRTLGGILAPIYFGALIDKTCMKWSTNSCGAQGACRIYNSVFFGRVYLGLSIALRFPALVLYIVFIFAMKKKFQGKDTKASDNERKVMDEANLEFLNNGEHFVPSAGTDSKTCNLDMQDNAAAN
# Experimental setup: chinese hamster, cho, 10 µM
Positions of bridges follow the written chain, without caps; N, C: chain ends. Non-standard residues stand in square brackets, D forms with d. Residues, ends and D or L forms follow the SMILES beside them. *: point of attachment. Ileψ(thiazoline)Cys = CC[C@H](C)[C@H](N)C1=N[C@H](C(=O)*)CS1; dOrn = NCCC[C@@H](N)C(=O)O
Give your result in % as a bare value.

- Compound: "COc1cc(O)c(C(C)=O)c(OC)c1"
  residual activity [%]: 104.3
- Compound: "C[C@@H]1C(=O)O[C@H]2[C@H]1CC[C@@]1(C)C=CC(=O)[C@@]3(C)O[C@@]213 [EPOXY (4,5alpha)-4,5-DIHYDROSANTONIN]"
  residual activity [%]: 88.69
- Compound: "COc1ccc(-c2coc3cc(O)ccc3c2=O)c(OC)c1O"
  residual activity [%]: 96.23
- Compound: "OCCN1CCN(CCCN2c3ccccc3Sc3ccc(Cl)cc32)CC1"
  residual activity [%]: 113.3

Input line: Supply reported residual activity belonging to this compound: `C[C@H](CCC(=O)O)[C@H]1CC[C@H]2[C@@H]3CC[C@@H]4C[C@H](O)CC[C@]4(C)[C@H]3C=C[C@]12C`
Output line: 112

Input line: Supply reported residual activity belonging to this compound: `Nc1ccn([C@@H]2O[C@H](CO)[C@@H](O)[C@@H]2O)c(=O)n1`
Output line: 95.76

Input line: Supply reported residual activity belonging to this compound: CC[C@@H]1C(=O)OC[C@@H]1Cc1cncn1C.O=[N+]([O-])O [PILOCARPINE NITRATE]
Output line: 95.87

Input line: Supply reported residual activity belonging to this compound: `NC[C@H]1CC[C@H](C(=O)O)CC1`
Output line: 102.3

Input line: Supply reported residual activity belonging to this compound: Cl.O=C(COc1ccc(Cl)cc1)N1CCN(Cc2ccc3c(c2)OCO3)CC1 [FIPEXIDE HYDROCHLORIDE]
Output line: 95

Input line: Supply reported residual activity belonging to this compound: CN(Cc1cc(Br)cc(Br)c1N)C1CCCCC1.Cl [BROMHEXINE HYDROCHLORIDE]
Output line: 95.98

Input line: Supply reported residual activity belonging to this compound: CC[C@H](C)[C@H](N)C1=N[C@H](C(=O)N[C@@H](CC(C)C)C(=O)N[C@H](CCC(=O)O)C(=O)N[C@H](C(=O)N[C@H]2CCCCNC(=O)[C@H](CC(N)=O)NC(=O)[C@@H](CC(=O)O)NC(=O)[C@H](Cc3cnc[nH]3)NC(=O)[C@@H](Cc3ccccc3)NC(=O)[C@H]([C@@H](C)CC)NC(=O)[C@@H](CCCN)NC2=O)[C@@H](C)CC)CS1 [BACITRACIN] ({Ileψ(thiazoline)Cys}-L[dE]IK[dOrn]I[dF]H[dD]N; lactam 4-C)
Output line: 77.52

Input line: Supply reported residual activity belonging to this compound: `C=C[C@H]1C[N@@]2CC[C@H]1C[C@@H]2[C@@H](O)c1ccnc2ccccc12`
Output line: 105.3

Input line: Supply reported residual activity belonging to this compound: `CO[C@H]1C[C@H](O[C@H]2CC[C@@]3(C)[C@H](CC[C@@H]4[C@@H]3CC[C@]3(C)[C@@H](C5=CC(=O)OC5)[C@@H](OC(C)=O)C[C@]43O)C2)O[C@@H](C)[C@@H]1O`
Output line: 91.7

Input line: Supply reported residual activity belonging to this compound: `O=C(O)CCCC[C@@H]1SC[C@@H]2NC(=O)N[C@@H]21`
Output line: 96.7

Input line: Supply reported residual activity belonging to this compound: `Cc1cc(OC(=O)c2c(C)cc(O)cc2O)cc(O)c1C(=O)O`
Output line: 60.79

Input line: Supply reported residual activity belonging to this compound: Cl.Cl.NCCCCN [PUTRESCINE DIHYDROCHLORIDE]
Output line: 106.7
